experiment: Antifungal activity against Fonsecaea compacta clinical isolate by micro-broth dilution method; type: functional
Each record is given T if its reported MIC80 is strictly below 4 µg/mL. Records at or above 4 µg/mL are given F.

Use these answered entries as a reference point.
{"compound": "COc1ccc(C(=O)Nc2ccc(N3CCN(CC(O)(Cn4cncn4)c4ccc(F)cc4F)CC3)c(C(F)(F)F)c2)cc1 (centres undefined)", "category label": "F"}
{"compound": "CCCCCCC(=O)Nc1ccc(N2CCN(CC(O)(Cn3cncn3)c3ccc(F)cc3F)CC2)c(C(F)(F)F)c1 (centres undefined)", "category label": "F"}
{"compound": "CC(=O)Nc1ccc(N2CCN(CC(O)(Cn3cncn3)c3ccc(F)cc3F)CC2)c(C(F)(F)F)c1 (centres undefined)", "category label": "T"}
{"compound": "O=C(Nc1ccc(N2CCN(CC(O)(Cn3cncn3)c3ccc(F)cc3F)CC2)c(C(F)(F)F)c1)c1ccc(OC(F)(F)F)cc1 (centres undefined)", "category label": "F"}
{"compound": "CCCCCC(=O)Nc1ccc(N2CCN(CC(O)(Cn3cncn3)c3ccc(F)cc3F)CC2)c(C(F)(F)F)c1 (centres undefined)", "category label": "F"}
{"compound": "Cc1ccc(C(=O)Nc2ccc(N3CCN(CC(O)(Cn4cncn4)c4ccc(F)cc4F)CC3)c(C(F)(F)F)c2)cc1 (centres undefined)", "category label": "F"}
{"compound": "CCC(C)n1ncn(-c2ccc(N3CCN(c4ccc(OCC5COC(Cn6cncn6)(c6ccc(Cl)cc6Cl)O5)cc4)CC3)cc2)c1=O (centres undefined) [ITRACONAZOLE]", "category label": "T"}
{"compound": "OC(Cn1cncn1)(Cn1cncn1)c1ccc(F)cc1F [FLUCONAZOLE]", "category label": "F"}

Now examine the next entry.
Just wondering, is MIC80 of C[C@@H](c1ncncc1F)[C@](O)(Cn1cncn1)c1ccc(F)cc1F [VORICONAZOLE] below 4 µg/mL? T

====

test system: Trichophyton rubrum; assay: Antifungal activity against Trichophyton rubrum clinical isolate by micro-broth dilution method; assay type: functional
quantity name: log10 of MIC80 (log10 of the value in µg/mL)
// units: µg/mL (pre-log); metric: MIC80; scale: log10

{"molecule": "CC(C)(C)c1ccc(C(=O)Nc2ccc(N3CCN(CC(O)(Cn4cncn4)c4ccc(F)cc4F)CC3)c(C(F)(F)F)c2)cc1 (centres undefined)", "log10 of MIC80": 0.60}
{"molecule": "CCCCCCC(=O)Nc1ccc(N2CCN(CC(O)(Cn3cncn3)c3ccc(F)cc3F)CC2)c(C(F)(F)F)c1 (centres undefined)", "log10 of MIC80": 0.60}
{"molecule": "O=C(Nc1ccc(N2CCN(CC(O)(Cn3cncn3)c3ccc(F)cc3F)CC2)c(C(F)(F)F)c1)c1ccc(Cl)cc1 (centres undefined)", "log10 of MIC80": 0.60}

# input molecule: CCCCCC(=O)Nc1ccc(N2CCN(CC(O)(Cn3cncn3)c3ccc(F)cc3F)CC2)c(C(F)(F)F)c1 (centres undefined) ; wanted: its log10 of MIC80 0.60

====

Each entry below carries its reported MIC80.
test system: Trichophyton rubrum; assay: Antifungal activity against Trichophyton rubrum clinical isolate by micro-broth dilution method; format: functional
// return numeric value only (unit: µg/mL, not printed)

Previously resolved entries follow.
{"compound": "CCCCCCCC(=O)Nc1ccc(N2CCN(CC(O)(Cn3cncn3)c3ccc(F)cc3F)CC2)c(C(F)(F)F)c1 (stereo not given)", "assayed target": "Trichophyton rubrum", "obs value": 4}
{"compound": "COc1ccc(C(=O)Nc2ccc(N3CCN(CC(O)(Cn4cncn4)c4ccc(F)cc4F)CC3)c(C(F)(F)F)c2)cc1 (stereo not given)", "assayed target": "Trichophyton rubrum", "obs value": 1}
{"compound": "O=C(Nc1ccc(N2CCN(CC(O)(Cn3cncn3)c3ccc(F)cc3F)CC2)c(C(F)(F)F)c1)c1ccc(OC(F)(F)F)cc1 (stereo not given)", "assayed target": "Trichophyton rubrum", "obs value": 16}
{"compound": "OC(Cn1cncn1)(Cn1cncn1)c1ccc(F)cc1F [FLUCONAZOLE]", "assayed target": "Trichophyton rubrum", "obs value": 0.25}
{"compound": "CC(C)(C)C(=O)Nc1ccc(N2CCN(CC(O)(Cn3cncn3)c3ccc(F)cc3F)CC2)c(C(F)(F)F)c1 (stereo not given)", "assayed target": "Trichophyton rubrum", "obs value": 4}
{"compound": "CCCCC(=O)Nc1ccc(N2CCN(CC(O)(Cn3cncn3)c3ccc(F)cc3F)CC2)c(C(F)(F)F)c1 (stereo not given)", "assayed target": "Trichophyton rubrum", "obs value": 4}

Tell me the measured MIC80 of C[C@@H](c1ncncc1F)[C@](O)(Cn1cncn1)c1ccc(F)cc1F [VORICONAZOLE] , please. 0.0039

====

system: Trichophyton rubrum; assay: Antifungal activity against Trichophyton rubrum clinical isolate by micro-broth dilution method; type: functional
# MIC80 annotations
Provide only the numeric value, understood in µg/mL.

Answered cases to consult:
{"compound": "CC(C)C(=O)Nc1ccc(N2CCN(CC(O)(Cn3cncn3)c3ccc(F)cc3F)CC2)c(C(F)(F)F)c1 (stereo not drawn)", "quantity name": "MIC80", "obs value": 1}
{"compound": "O=C(Nc1ccc(N2CCN(CC(O)(Cn3cncn3)c3ccc(F)cc3F)CC2)c(C(F)(F)F)c1)c1ccccc1 (stereo not drawn)", "quantity name": "MIC80", "obs value": 1}

For the compound Cc1ccc(C(=O)Nc2ccc(N3CCN(CC(O)(Cn4cncn4)c4ccc(F)cc4F)CC3)c(C(F)(F)F)c2)cc1 (stereo not drawn) , what MIC80 is on record? 4

Entry under review: O=C(Nc1ccc(N2CCN(CC(O)(Cn3cncn3)c3ccc(F)cc3F)CC2)c(C(F)(F)F)c1)c1ccc(F)cc1 (stereo not drawn) . Reported MIC80? 4

// MIC80 lookup, key: CCC(C)n1ncn(-c2ccc(N3CCN(c4ccc(OCC5COC(Cn6cncn6)(c6ccc(Cl)cc6Cl)O5)cc4)CC3)cc2)c1=O (stereo not drawn) 0.0156

Query (compound): CCC(=O)Nc1ccc(N2CCN(CC(O)(Cn3cncn3)c3ccc(F)cc3F)CC2)c(C(F)(F)F)c1 (stereo not drawn) ; field requested: MIC80 1

Any idea what MIC80 was measured for CC(=O)Nc1ccc(N2CCN(CC(O)(Cn3cncn3)c3ccc(F)cc3F)CC2)c(C(F)(F)F)c1 (stereo not drawn) ? 1

Look at this compound and give its reported MIC80. CCCC(=O)Nc1ccc(N2CCN(CC(O)(Cn3cncn3)c3ccc(F)cc3F)CC2)c(C(F)(F)F)c1 (stereo not drawn) 4

Where do these numbers come from? They come from ChEMBL document CHEMBL1795297.
